Structures can show the parent of a compound that is named as a salt.
Field: melting point. Provide a value for each of the compounds that follow.

Below, each entry is followed by its recorded melting point result.
{"columns": ["Compound", "melting point"],
 "data": [
  ["C[C@H]1CN(c2ccc(Cl)c(C(F)(F)F)c2)C(=O)c2c(-c3ccncc3)cnn21 [compound 68]", "> 300 °C"],
  ["Cc1cc(-c2cnn3c2C(=O)N(c2ccc(C(F)(F)F)cc2)CC3CF)ccn1 (stereo not shown) [compound 52]", "> 300 °C"],
  ["COc1cc(-c2cnn3c2C(=O)N(c2ccc(C(F)(F)F)c(C#N)c2)C[C@@H]3C)ccn1 [compound 88]", "157.75 °C (dec.)"],
  ["CCNc1cc(-c2cnn3c2C(=O)N(c2ccc(C(F)(F)F)cc2)C[C@@H]3C)ccn1 [compound 44]", "> 300 °C"]
]}

Hi team, please reply with melting point for each item in this list.
1. CC(O)c1cc(-c2cnn3c2C(=O)N(c2ccc(Cl)c(Cl)c2)C[C@@H]3C)ccn1 (stereo partly shown) [compound 111]
2. COc1cc(-c2cnn3c2C(=O)N(c2ccc(C(F)(F)F)c(OC)n2)C[C@@H]3C)ccn1 [compound 240]
3. COc1ccc(N2C[C@H](C)n3ncc(-c4ccnc(C)c4)c3C2=O)cc1Cl (as salt: HCl) [compound 20]

result:
> 300 °C
107.87 °C (dec.)
293.6 °C

----------
Field: Emax. Provide a value for each of the compounds that follow.
# Measurement target: human mGlu2 receptor (Homo sapiens)
# Construct: expressed in transfected cells; host or cells: CHO cells (membrane preparation)
# Sequence (Q14416 19-872): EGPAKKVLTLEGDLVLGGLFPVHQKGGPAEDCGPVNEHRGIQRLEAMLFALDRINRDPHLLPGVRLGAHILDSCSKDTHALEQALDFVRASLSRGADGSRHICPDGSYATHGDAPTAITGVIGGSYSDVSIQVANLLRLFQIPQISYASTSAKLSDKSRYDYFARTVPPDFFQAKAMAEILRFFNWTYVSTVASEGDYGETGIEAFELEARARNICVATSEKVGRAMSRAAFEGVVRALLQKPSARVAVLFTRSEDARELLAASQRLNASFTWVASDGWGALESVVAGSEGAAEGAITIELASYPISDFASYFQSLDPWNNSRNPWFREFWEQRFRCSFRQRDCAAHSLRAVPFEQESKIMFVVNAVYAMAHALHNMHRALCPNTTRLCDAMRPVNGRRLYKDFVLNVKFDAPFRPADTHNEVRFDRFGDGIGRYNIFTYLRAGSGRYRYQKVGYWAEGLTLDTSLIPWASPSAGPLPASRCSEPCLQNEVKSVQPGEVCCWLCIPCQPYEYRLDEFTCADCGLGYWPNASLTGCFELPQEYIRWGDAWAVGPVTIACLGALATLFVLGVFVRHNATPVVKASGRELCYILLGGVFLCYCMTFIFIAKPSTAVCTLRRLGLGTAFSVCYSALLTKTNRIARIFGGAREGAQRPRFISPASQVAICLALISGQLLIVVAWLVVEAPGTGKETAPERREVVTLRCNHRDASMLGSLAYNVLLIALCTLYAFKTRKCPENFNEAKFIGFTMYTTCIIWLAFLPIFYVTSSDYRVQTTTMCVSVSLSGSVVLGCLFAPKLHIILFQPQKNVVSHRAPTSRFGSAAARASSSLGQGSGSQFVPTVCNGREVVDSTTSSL
# Measurement protocol: [35S]GTPγS binding assay (mGluR2 negative allosteric modulation)
# Assay type: biochemical
# Applied conditions: relative maximal effect: maximal % inhibition relative to the control glutamate response; read-out: GTPγS - hmGluR2 anGT Emax
Numbers only, in %.

Hi team, please reply with Emax for each item in this list.
1. Cc1cc(-c2cnn3c2C(=O)N(c2ccc(Cl)cc2)C[C@@H]3C)cc(C)n1
2. C[C@H]1CN(c2ccc(C(F)(F)F)cc2)C(=O)c2c(-c3ccnc(N(C)C)c3)cnn21

result:
1: 103; 2: 102

Hi team, please reply with Emax for each item in this list.
1. CCCNc1cc(-c2cnn3c2C(=O)N(c2ccc(Cl)c(Cl)c2)C[C@@H]3C)ccn1
2. C[C@H]1CN(c2ccc(C(F)(F)F)cc2)C(=O)c2c(-c3ccc(C#N)nc3)cnn21
3. Cc1cc(-c2cnn3c2C(=O)N(c2ccc(Cl)c(C(F)(F)F)c2)C[C@@H]3C)ccn1

result:
[109, 103, 103]

----------
# Tested on: rats
# Measurement protocol: Reversal of the effect of the mGluR2 PAM JNJ-42153605 on scopolamine-induced hyperlocomotion
# Format: in vivo
# Applied conditions: Rattus norvegicus, 1 h, Route PO, test compound 60 min before recording, criterion total distance >1500 cm
# if measured ED50 < 2 mg/kg: yes (1)  # else: no (0)

Observe how each entry below is paired with its result.
{"columns": ["Compound", "Class assignment"],
 "data": [
  ["CNc1cc(-c2cnn3c2C(=O)N(c2ccc(C(F)(F)F)c(Cl)c2)C[C@@H]3C)ccn1 [compound 103]", "yes (1)"],
  ["Cc1cc(-c2cnn3c2C(=O)N(c2ccc(C(F)(F)F)c(C#N)c2)C[C@@H]3C)ccn1 [compound 13]", "no (0)"],
  ["Cc1cc(-c2cnn3c2C(=O)N(c2ccc(Cl)c(Cl)c2)C[C@@H]3C)ccn1 [compound 6]", "yes (1)"],
  ["CNc1cc(-c2cnn3c2C(=O)N(c2ccc(C(F)(F)F)cc2)C[C@@H]3C)cc(OC)n1 [compound 242]", "no (0)"],
  ["Cc1cc(-c2cnn3c2C(=O)N(c2ccc(C(F)(F)F)c(Cl)c2)C[C@@H]3C)cc(C)n1 [compound 43]", "yes (1)"],
  ["CCc1cc(-c2cnn3c2C(=O)N(c2ccc(C(F)(F)F)cc2)C[C@@H]3C)ccn1 [compound 46]", "no (0)"],
  ["CCOc1nc(N2C[C@H](C)n3ncc(-c4ccnc(C)c4)c3C2=O)ccc1Cl [compound 201]", "no (0)"],
  ["Cc1cc(-c2cnn3c2C(=O)N(c2ccc(SC(F)(F)F)cc2)C[C@@H]3C)ccn1 [compound 236]", "no (0)"]
]}

Let's switch to this compound now.
query: Dear reviewer, please state whether CCNc1cc(-c2cnn3c2C(=O)N(c2ccc(C(F)(F)F)c(C)c2)C[C@@H]3C)ccn1 [compound 256] has ED50 strictly beneath 2 mg/kg.
result: no (0)
